Hello, the source for this data is patent US20260234276A1, in case you need it.

target: T1, biotinylated CCR8 peptide (human, N-terminal biotin); experiment: ELISA, soluble Fab on biotinylated CCR8 peptide captured on streptavidin
T1 construct: first 34 residues of human CCR8 plus a C-terminal K; also called biotinylated target peptide
// Optical Density lookup, one value per entry
readout kind: Optical Density (OD450)

1. 3-72 (Fab, V domains shown, soluble Fab from phage display library huFabL-4, Flag tag) VH: QVTLKESGGGVVQPGRSLRLSCAASGFTFSSYAMHWVRQAPGKGLEWVAVISYDGSNKYYADSVKGRFTISRDNSKNTLYLQMNSLRAEDTAVYYCASSLLGAFDVWGKGTLVTVSS VL: DVVMTQSPLSLPVTPGEPASISCRSSQSLLHSNGYNYLSWYLQRPGQSPQLLMYLGSKRASGVPDRFSGSGSGTDFTLEISRVEAEDVGIYYCMQALQTPLTFGGGTKVEIKR	3.26
2. 3-61 (Fab, V domains shown, soluble Fab from phage display library huFabL-4, Flag tag) VH: QVQLVESGAEVKKPGASVKVSCKASGYTFTSYYMHWVRQAPGQGLEWMGIINPSGGGTKYAQSLQGRVTMTRDTSTSTVYMELNSLTSEDTAVYYCARGGTPSGLDYWGKGTLVTVSS VL: DIQMTQSPSSLSASVGDRVTITCRASQGISNYLAWYQQKPGKVPKLLIYAASTLQSGVPSRFSGSGSGTDFTLTISSLQPEDVATYYCQKYNSAPLTFGGGTKVEIKR	2.43
3. 3-68 (Fab, V domains shown, soluble Fab from phage display library huFabL-4, Flag tag) VH: QVQLQQSGPGLVKPSQTLSLTCAISGDSVSRNTAAWNWIRQSPSRGLEWLGRTYYRSKWYNDYAVSVKSRITIRPDTSKNQISLQLTSVTPEDTAVYYCARGVHNAFDIWGRGTMVTVSS VL: ETTLTQSPGTLSLSPGERATLSCRASQSVGNRYLAWYQQKPGQAPRLLIYGASSRATGIPDRFSGSGSGTDFTLTISRLEPEDFAVYYCQQYSGSTGYTFGQGTKLEIKR	3.64
4. 3-57 (Fab, V domains shown, soluble Fab from phage display library huFabL-4, Flag tag) VH: QMQLVQSGAEVKKPGASVKVSCKASGYTFTSYYMHWVRQAPGQGLEWMGIINPSGGSTSYAQKFQGRVTMTRDTSTSTVYMELSSLRSEDTAVYYCARAGVRGVFGMDVWGKGTLVTVSS VL: QSALTQPASVSGSPGQSITISCTGTSSDLGAYNYVSWYQQHPGKAPRLMIYDVSKRPSGVPDRFSGSKSDNTASLTISGLQAEDEADYYCSSYTSSSTLVFGGGTKVTVLS	2.39
5. 3-54 (Fab, V domains shown, soluble Fab from phage display library huFabL-4, Flag tag) VH: QVQLVQSGAEVKKPGASVKVSCKASGYTFSGYYIHWVRQAPGQGLEWMGWINPNSGGTNYAQNFQGRVTMTRDTSISTAYMELSRLRSDDTAMYYCARGNGAMDVWGRGTLVTVSS VL: DVVMTQSPLSLPVTSGKPASISCRSSQSLLHSNGYNYLDWYLQKPGQSPQLLIYLGSNRASGVPDRFSGSGSGTDFTLKISRVEAEDVGVYYCMQGTYWPRTFGQGTKVEIKR	2.76
